- target.or.test.system: Sigma receptor (Cavia porcellus)
- method.summary: Binding assay for the sigma receptor sites is performed by utilizing [3H]N,N-di-o-tolylguanidine ([3H]DTG) and guinea pig brain membrane suspensions
assay.endpoint: IC50 (nM)

I. CCc1cccc(NC(N)=Nc2ccc(Cl)c(Cl)c2)c1
II. CCc1cccc(N(C)C(N)=Nc2cc(CC)cc(C(F)(F)F)c2Br)c1
III. CCc1cccc(NC(N)=Nc2ccccc2CC)c1
IV. CCc1cccc(N(C)C(N)=Nc2cc(Cl)cc(SC)c2Cl)c1
V. CCc1cccc(N(C)C(N)=Nc2ccccc2C(C)C)c1
// query Order the records so the highest IC50 appears first and the lowest last. Answer by naming the labels in the order asked.
// result V, II, IV, I, III

These data points were gathered from BindingDB's records for doi:10.1021/jm970459c.
